# assaySystem: TRKB (Homo sapiens)
# Sequence (Q16620 32-822, species assumed): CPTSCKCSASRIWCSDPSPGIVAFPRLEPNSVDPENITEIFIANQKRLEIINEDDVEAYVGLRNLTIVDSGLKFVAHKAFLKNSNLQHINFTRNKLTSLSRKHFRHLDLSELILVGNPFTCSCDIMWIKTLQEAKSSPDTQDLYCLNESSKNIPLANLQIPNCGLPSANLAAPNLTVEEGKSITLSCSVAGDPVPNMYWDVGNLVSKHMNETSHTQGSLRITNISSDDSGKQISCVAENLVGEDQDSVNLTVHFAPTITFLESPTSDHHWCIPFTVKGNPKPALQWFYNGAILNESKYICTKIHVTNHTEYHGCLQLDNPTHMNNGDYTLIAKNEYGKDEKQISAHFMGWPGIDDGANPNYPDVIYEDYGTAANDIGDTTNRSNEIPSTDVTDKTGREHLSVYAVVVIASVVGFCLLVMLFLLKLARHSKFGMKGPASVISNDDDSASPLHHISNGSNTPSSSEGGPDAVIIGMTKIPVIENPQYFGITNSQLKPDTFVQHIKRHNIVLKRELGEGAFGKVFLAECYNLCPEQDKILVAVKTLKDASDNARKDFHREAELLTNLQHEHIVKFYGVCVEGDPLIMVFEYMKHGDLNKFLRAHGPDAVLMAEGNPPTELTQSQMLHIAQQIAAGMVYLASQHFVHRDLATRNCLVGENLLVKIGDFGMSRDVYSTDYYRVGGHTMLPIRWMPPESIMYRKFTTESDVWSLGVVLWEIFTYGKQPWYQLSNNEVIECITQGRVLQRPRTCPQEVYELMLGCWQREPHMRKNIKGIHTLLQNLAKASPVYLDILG
# assayExplanation: Kinase panel (mobility shift)
# Type: biochemical
The reader will find reported inhibition at 5 µM values listed item by item below.

CNC(=O)c1cc(Oc2ccc(NC(=O)c3nc(C4CC4)oc3-c3ccc(F)cc3)cc2F)ccn1 ... 50 to 79%

Ask | Output inhibition at 5 µM of CNC(=O)c1cc(Oc2ccc(NC(=O)c3nc(S(C)(=O)=O)sc3-c3ccc(F)cc3)cc2F)ccn1
Reply | 50 to 79%

Ask | In one line, give reported inhibition at 5 µM of the entry CNC(=O)c1cc(Oc2ccc(NC(=O)c3nc(OCC(F)(F)F)oc3-c3ccc(F)cc3)cc2F)ccn1 .
Reply | < 50%

Ask | Give the reported value of inhibition at 5 µM for this record: [2H]C([2H])([2H])NC(=O)c1cc(Oc2ccc(NC(=O)c3nc(SC)oc3-c3ccc(F)s3)cc2F)ccn1
Reply | < 50%
